target: Histone deacetylase 8 (Homo sapiens, UniProt Q9BY41)
Sequence (Q9BY41 whole entry): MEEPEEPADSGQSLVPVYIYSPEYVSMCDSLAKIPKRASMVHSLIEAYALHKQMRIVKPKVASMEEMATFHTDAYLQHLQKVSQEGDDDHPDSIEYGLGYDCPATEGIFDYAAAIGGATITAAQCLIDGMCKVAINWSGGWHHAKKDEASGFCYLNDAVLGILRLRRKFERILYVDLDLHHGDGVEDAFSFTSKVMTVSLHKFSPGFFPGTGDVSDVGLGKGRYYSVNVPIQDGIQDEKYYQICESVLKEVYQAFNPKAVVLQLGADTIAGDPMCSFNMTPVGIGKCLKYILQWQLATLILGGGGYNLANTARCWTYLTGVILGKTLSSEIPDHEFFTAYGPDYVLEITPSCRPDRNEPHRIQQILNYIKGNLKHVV
Assay Readout: pKi
Recall that pKi is obtained by taking minus log10 of the concentration measured in molar.

CCCCCCNNC(=O)c1ccc(-c2ccc(CNC(C)=O)cc2)cc1 ... 7.51

Field: pKi (Histone deacetylase 8 (Homo sapiens, UniProt Q9BY41)). Entry: CCCNNC(=O)c1cnc(N2CCN(Cc3c[nH]c4ccccc34)CC2)nc1
8.26

###

assay: Stability of compound in DMEM/DMSO/acetonitrile at pH 7.4 measured after 6 hrs by HPLC analysis; type: physicochemical; settings: read-out: Stability
Assay Readout: remaining at 6 h (%)
The response must be a number in % with no trailing unit.

Example molecules with recorded remaining at 6 h:
CCCCCCNNC(=O)c1ccc(-c2ccc(CNC(C)=O)cc2)cc1 ... 103
CCCNNC(=O)c1cnc(N2CCN(Cc3c[nH]c4ccccc34)CC2)nc1 ... 81.7

Please look at the following molecule next.
Find the recorded remaining at 6 h belonging to CCCNNC(=O)c1ccc(-c2ccc(CNC(C)=O)cc2)cc1 and report it.
98.3

###

biological target: Histone deacetylase 3 (Homo sapiens); assay: Inhibition of recombinant human HDAC3 using p53 (Ac-RHKK(Acetyl)-AMC) as substrate preincubated for 5 mins followed by substrate addition and measured after 30 mins by fluorescence based analysis
Sequence (O15379 whole entry): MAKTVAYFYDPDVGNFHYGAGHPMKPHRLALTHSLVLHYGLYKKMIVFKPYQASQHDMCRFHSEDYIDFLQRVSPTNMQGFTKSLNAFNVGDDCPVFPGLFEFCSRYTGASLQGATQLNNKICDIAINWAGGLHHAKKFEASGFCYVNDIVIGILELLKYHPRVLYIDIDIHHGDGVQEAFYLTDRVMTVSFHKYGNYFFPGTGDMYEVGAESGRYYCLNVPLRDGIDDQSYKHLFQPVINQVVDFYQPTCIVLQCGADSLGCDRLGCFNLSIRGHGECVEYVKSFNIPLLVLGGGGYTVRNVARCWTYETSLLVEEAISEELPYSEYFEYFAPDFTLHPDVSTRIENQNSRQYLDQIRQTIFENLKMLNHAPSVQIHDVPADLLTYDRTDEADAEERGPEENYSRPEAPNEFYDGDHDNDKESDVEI
Below is a list of entries, each paired with its recorded pIC50 value.
Recall that pIC50 is obtained by taking minus log10 of the concentration measured in molar.

Find the recorded pIC50 belonging to CCCNNC(=O)c1cnc(N2CCN(Cc3c[nH]c4ccccc34)CC2)nc1 and report it.
7.52

Find the recorded pIC50 belonging to CCCNNC(=O)c1cnc(NCc2ccc(CNC(C)=O)cc2)nc1 and report it.
6.96

###

target: Histone deacetylase 3 (Homo sapiens); assay: Inhibition of recombinant human HDAC3 using p53 (Ac-RHKK(Acetyl)-AMC) as substrate preincubated for 5 mins followed by substrate addition and measured after 30 mins by fluorescence based analysis
pIC50: −log10 of the molar value.
Param threshold (6) applies to pIC50; output Fulfilled when value >= threshold, Not fulfilled when value < threshold.

CCCCCCNNC(=O)c1cccc(NCc2ccccc2)c1 ... Not fulfilled
CCCCCCNNC(=O)c1cnc(NCc2cccc3ccccc23)nc1 ... Not fulfilled
CCCNNC(=O)c1cnc(NCc2cc(Cl)ccc2Cl)nc1 ... Fulfilled
CCCNNC(=O)c1cnc(NCc2cccc3ccccc23)nc1 ... Fulfilled
CCCCCCNNC(=O)c1cnc(NCc2ccc(CNC(C)=O)cc2)nc1 ... Not fulfilled
CCCCNNC(=O)c1ccc(-c2ccc(CNC(C)=O)cc2)cc1 ... Fulfilled

Determine whether this compound has pIC50 no lower than 6: CCCNNC(=O)c1ccc(CNC(C)=O)cc1
Not fulfilled

Determine whether this compound has pIC50 no lower than 6: CCCCCCNNC(=O)c1ccc(CNC(C)=O)cc1
Not fulfilled

Determine whether this compound has pIC50 no lower than 6: CCCCNNC(=O)c1cnc(NCc2ccccc2)nc1
Fulfilled

Determine whether this compound has pIC50 no lower than 6: CCCCCCNNC(=O)c1ccc(-c2ccc(CNC(C)=O)cc2)cc1
Not fulfilled
